This collection of values is drawn from ChEMBL document CHEMBL1150411.

- assayed target: Cyclin-dependent kinase 2 (Homo sapiens)
- experiment description: Inhibition of CDK2/cyclin E expressed in Sf9 cells-baculovirus system assessed as retinoblastoma susceptibility gene product phosphorylation
test readout: IC50

Answered cases to consult:
>  <compound>
CC1CN(c2ccc(N/C=C3\C(=O)NC(=O)c4ccc(I)cc43)cc2)CCN1C (stereo unspecified)

>  <IC50>
> 50 µM

$$$$
>  <compound>
C[C@@H]1CN(c2ccc(N/C=C3\C(=O)NC(=O)c4ccc(I)cc43)cc2)C[C@H](C)N1

>  <IC50>
> 50 µM

$$$$
>  <compound>
O=C1NC(=O)c2ccc(-c3ccc(Cl)cc3)cc2/C1=C/Nc1ccc(CN2CCCCC2)cc1

>  <IC50>
> 50 µM

$$$$

Ask: Please look up its IC50: "CN(C)C(=O)c1ccc2c(c1)/C(=C/Nc1ccc(CN3CCCCC3)cc1)C(=O)NC2=O"
Reply: 39.8 µM

Ask: Please look up its IC50: "O=C1NC(=O)c2ccc(-c3ccc(O)cc3)cc2/C1=C/Nc1ccc(CN2CCCCC2)cc1"
Reply: > 50 µM

Ask: Please look up its IC50: "C[C@@H]1CN(c2ccc(N/C=C3\C(=O)NC(=O)c4ccc(I)cc43)cc2)[C@@H](C)CN1C"
Reply: > 50 µM
